test system: B16; assay: Inhibition of invasion of B16 melanoma cells by 10 uM concentration of the compound; format: functional; conditions: Mus musculus
Would you mind telling me the reported inhibition at 10 µM of each entry?
Write the numeric value and follow it with the unit.

C[C@@H]1CC[C@@H](c2ccoc2)N2C[C@](C)(O)CC[C@@H]12 [NUPHAROLUTINE] | 16.8%
C[C@@H]1CC[C@@H](c2ccoc2)N2C[C@]3(CC[C@@H]12)C[S+]([O-])[C@]1(CC[C@H]2[C@H](C)CC[C@@H](c4ccoc4)N2C1)C3 (stereo partly specified) | 12.8%
C[C@@H]1CC[C@@H](c2ccoc2)N2C[C@@]3(CC[C@@H]12)C[S+]([O-])[C@@]1(CC[C@H]2[C@H](C)CC[C@@H](c4ccoc4)N2C1)C3 (stereo partly specified) | 42.2%

Give measured inhibition at 10 µM for every item shown.
1. C[C@@H]1CC[C@@H](c2ccoc2)N2C[C@@]3(CC[C@@H]12)CS[C@@]1(CC[C@H]2[C@H](C)CC[C@@H](c4ccoc4)N2[C@@H]1O)C3
2. C[C@H]1CC[C@H]2[C@H](C)CC[C@@H](c3ccoc3)N2C1
3. C[C@@H]1CC[C@@H](c2ccoc2)N2C[C@@]3(CC[C@@H]12)CS[C@]1(CC[C@H]2[C@H](C)CC[C@@H](c4ccoc4)N2[C@@H]1O)C3 [6-HYDROXYTHIONUPHLUTINE B]

1: 84.8%; 2: 28.5%; 3: 61.4%

###

system: B16; assay: Inhibition of invasion of B16 melanoma cells by 0.1 uM concentration of the compound; format: functional; details: Mus musculus
measured.endpoint: inhibition at 0.1 µM (%)
Give bare numbers, in %.

Please report inhibition at 0.1 µM for every entry that follows.
1. C[C@H]1CC[C@H]2[C@H](C)CC[C@@H](c3ccoc3)N2C1
2. C[C@@H]1CC[C@@H](c2ccoc2)N2[C@H]1CC[C@@]1(CS[C@@]3(CC[C@H]4[C@H](C)CC[C@@H](c5ccoc5)N4[C@@H]3O)C1)[C@H]2O
3. C[C@@H]1CC[C@@H](c2ccoc2)N2C[C@@]3(CC[C@@H]12)CS[C@@]1(CC[C@H]2[C@H](C)CC[C@@H](c4ccoc4)N2C1)C3

1. -5.1
2. 43.1
3. 5.2

###

system: B16; experiment: Inhibition of invasion of B16 melanoma cells by 10 uM concentration of the compound; format: functional; settings: Mus musculus
Satisfied means recorded inhibition at 10 µM is 20% or above; Not satisfied means it is below 20%.

Observe how each entry below is paired with its result.
C[C@@H]1CC[C@@H](c2ccoc2)N2C[C@]3(CC[C@@H]12)CS[C@]1(CC[C@H]2[C@H](C)CC[C@@H](c4ccoc4)N2C1)C3 | Satisfied
C[C@@H]1CC[C@@H](c2ccoc2)N2C[C@@]3(CC[C@@H]12)C[S+]([O-])[C@]1(CC[C@H]2[C@H](C)CC[C@@H](c4ccoc4)N2C1)C3 (stereo partly specified) | Not satisfied
C[C@@H]1CC[C@@H](c2ccoc2)N2C[C@@]3(CC[C@@H]12)CS[C@@]1(CC[C@H]2[C@H](C)CC[C@@H](c4ccoc4)N2C1)C3 | Not satisfied
C[C@H]1CC[C@H]2[C@H](C)CC[C@@H](c3ccoc3)[N@@+]2([O-])C1 | Satisfied
C[C@@H]1CC[C@@H](c2ccoc2)N2[C@H]1CC[C@@]1(CS[C@@]3(CC[C@H]4[C@H](C)CC[C@@H](c5ccoc5)N4[C@@H]3O)C1)[C@H]2O | Satisfied

Is inhibition at 10 µM for C[C@@H]1CC[C@H]2[C@H](C)CC[C@@H](c3ccoc3)N2C1 [(-)-7-EPI-DEOXYNUPHARIDINE] at or above 20%? Satisfied

###

test system: B16; assay: Inhibition of invasion of B16 melanoma cells by 0.1 uM concentration of the compound; type: functional; conditions: Mus musculus
Decision: inhibition at 0.1 µM >= 10% yields met, all other cases yield not met.

Would you please look over these solved cases?
C[C@@H]1CC[C@@H](c2ccoc2)N2C[C@@]3(CC[C@@H]12)C[S+]([O-])[C@@]1(CC[C@H]2[C@H](C)CC[C@@H](c4ccoc4)N2C1)C3 (some centres undefined) | met
C[C@@H]1CC[C@H]2[C@H](C)CC[C@@H](c3ccoc3)N2C1 [(-)-7-EPI-DEOXYNUPHARIDINE] | not met
C[C@@H]1CC[C@@H](c2ccoc2)N2C[C@@]3(CC[C@@H]12)CS[C@]1(CC[C@H]2[C@H](C)CC[C@@H](c4ccoc4)N2[C@@H]1O)C3 [6-HYDROXYTHIONUPHLUTINE B] | met
C[C@@H]1CC[C@@H](c2ccoc2)N2C[C@]3(CC[C@@H]12)C[S+]([O-])[C@]1(CC[C@H]2[C@H](C)CC[C@@H](c4ccoc4)N2C1)C3 (some centres undefined) | met
C[C@H]1CC[C@H]2[C@H](C)CC[C@@H](c3ccoc3)[N@@+]2([O-])C1 | met
C[C@@H]1CC[C@@H](c2ccoc2)N2C[C@]3(CC[C@@H]12)CS[C@]1(CC[C@H]2[C@H](C)CC[C@@H](c4ccoc4)N2C1)C3 | met
C[C@@H]1CC[C@@H](c2ccoc2)N2C[C@@]3(CC[C@@H]12)CS[C@@]1(CC[C@H]2[C@H](C)CC[C@@H](c4ccoc4)N2[C@@H]1O)C3 | met
C[C@@H]1CC[C@@H](c2ccoc2)N2C[C@](C)(O)CC[C@@H]12 | met

Now take the following compound into account.
Is reported inhibition at 0.1 µM greater than or equal to 10% here: C[C@@H]1CC[C@@H](c2ccoc2)N2C[C@@]3(CC[C@@H]12)C[S+]([O-])[C@]1(CC[C@H]2[C@H](C)CC[C@@H](c4ccoc4)N2C1)C3 (some centres undefined) not met
